Assay: NCI Yeast Anticancer Drug Screen. Data for the rad50 strain (AID 155);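 also: 0% = growth of vehicle-only cultures of the same strain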
Conditions: S. cerevisiae rad50 strain growth inhibition; at 50.0 µM; stronger effect = higher value
About 79,000 compounds went through this panel and 15% of them were active in at least one assay; those are over-represented in the sample as a whole.
Listed next: entries and their corresponding growth inhibition.
Write down the numeric answer in % and omit the unit.

O=c1c2ncccc2cc2n1CCc1c-2[nH]c2ccccc12 = -15.3
CC1(C)CC2(C)Sc3ccccc3N2C(=S)N1 (configuration not stated) = -35.6
O=C(Nc1ccccc1Cl)c1ccc(Cl)cc1 = 4.75
O=NN(CC(=O)O)c1ccc2ccccc2c1 = 2.55
CCCNCCC(=O)Nc1ccccc1C(=O)OCC = 3.15
O=NC1CCCCC1Cl (configuration not stated) = 3

For reference, reported growth inhibition for Cc1ccc(NC(=O)OCC2CC3C=CC2C3)cc1 (configuration not stated) stands at 95.5

====

Assay: NCI Yeast Anticancer Drug Screen. Data for the mec2-1 strain (AID 157)
Settings: S. cerevisiae mec2-1 strain, at 50.0 µM, stronger effect = higher value
About 79,000 compounds went through this panel and 15% of them were active in at least one assay; those are over-represented in the sample as a whole.
Listed next: entries and their corresponding growth inhibition.
Write down the numeric answer in % and omit the unit.

For reference, reported growth inhibition for "O=C(O)/C=C/S(=O)(=O)Cc1ccccc1" stands at -6.4

For reference, reported growth inhibition for "COC(=O)c1c(-c2ccc3c(c2)OCO3)cn(C)c1C" stands at 1.85

For reference, reported growth inhibition for O=C1c2cc3c(cc2CC1Cc1ccc2c(c1)CCC2)CCC3 (stereo not drawn) stands at -23.8

For reference, reported growth inhibition for "C=CCOc1ccc(N)c([N+](=O)[O-])c1" stands at 41.5

====

Assay: NCI Yeast Anticancer Drug Screen. Data for the sgs1 mgt1 strain (AID 161);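 also: 0% = growth of cultures given vehicle only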
Settings: S. cerevisiae sgs1 mgt1 strain, at 50.0 µM
About 79,000 compounds went through this panel and 15% of them were active in at least one assay; those are over-represented in the sample as a whole. Active and inactive are the calls of the source. No stated cut-off is given here; in the data, active means growth inhibition above about 70%; inactive means the rest.
Hi there, use one of these labels in your reply, thanks! active, inactive

Cc1ccc(S(=O)OC2C3CC4CC(C3)CC2C4)cc1 (stereo unspecified) = inactive

QUERY: Kindly provide the recorded test outcome for the following compound: "Cc1ccc2cccc([N+](=O)[O-])c2n1"
RESULT: inactive

QUERY: Kindly provide the recorded test outcome for the following compound: "CC(C)(SC(=N)N)B(O)O"
RESULT: inactive

QUERY: Kindly provide the recorded test outcome for the following compound: "O=C(CCC(=O)Nc1ccc(Cl)c(Cl)c1)Nc1ccc(Cl)c(Cl)c1"
RESULT: inactive

QUERY: Kindly provide the recorded test outcome for the following compound: CC(=O)CC1(O)C(=O)C(C(C)(C)C)=CC2(C(C)(C)C)OC12 (stereo unspecified)
RESULT: inactive

QUERY: Kindly provide the recorded test outcome for the following compound: CC(C)(C)OC(=O)C1C(=O)CC(c2ccccc2)C1c1ccccc1 (stereo unspecified)
RESULT: inactive

QUERY: Kindly provide the recorded test outcome for the following compound: "Nc1ccc(C(=O)Nc2ccc3c(O)cc(S(=O)(=O)O)cc3c2)cc1"
RESULT: inactive

QUERY: Kindly provide the recorded test outcome for the following compound: OC1c2ccccc2-c2ccc(Cl)cc21 (stereo unspecified)
RESULT: inactive

QUERY: Kindly provide the recorded test outcome for the following compound: CN(C)CC(O)CO (stereo unspecified)
RESULT: inactive

====

Listed next: entries and their corresponding growth inhibition.
Assay: NCI Yeast Anticancer Drug Screen. Data for the bub3 strain (AID 167)
Conditions: S. cerevisiae bub3 mutant strain, at 50.0 µM, stronger effect = higher value
Compounds without any hit were thinned out: in the full panel of roughly 79,000, 15% have a hit.
Write down the numeric answer in % and omit the unit.

For reference, reported growth inhibition for COc1ccc(/C=C2\CCC(CNc3cc(C)on3)C2=O)cc1 (configuration not stated) stands at 29.1

For reference, reported growth inhibition for "NOCc1ccc(OCc2ccccc2)cc1" stands at -2.4

For reference, reported growth inhibition for CCOC(=O)C(C(C)=O)C(NO)C(Cl)(Cl)Cl (configuration not stated) stands at 2.2

For reference, reported growth inhibition for "O=C(O)C#Cc1ccc(Cl)cc1" stands at -24.4

For reference, reported growth inhibition for "O=[N+]([O-])c1cc(/C=N/NS(=O)(=O)c2ccc(F)cc2)c(O)c([N+](=O)[O-])c1" stands at 0.35

For reference, reported growth inhibition for CC(O)CC(=O)c1ccc(O)cc1 (configuration not stated) stands at -49.5

For reference, reported growth inhibition for "O=C(/C=C/c1ccccc1)NN1CCOCC1" stands at 6.55

For reference, reported growth inhibition for NC1=NC(c2ccccc2)N=C(Nc2ccccc2)N1 (configuration not stated) stands at 15.2

For reference, reported growth inhibition for "COC(=O)CCC(=O)CN1C(=O)c2ccccc2C1=O" stands at 14.1

For reference, reported growth inhibition for "CCOc1nc(OCC)c2cnn(C)c2n1" stands at 7.55

For reference, reported growth inhibition for CCCCOCCOCCOC(=O)C(C)O (configuration not stated) stands at -7.25

For reference, reported growth inhibition for COCCCNC1=C(C#N)C(=O)NC(c2cccs2)S1 (configuration not stated) stands at 5.3

For reference, reported growth inhibition for Cc1c(C(CC(=O)c2ccccc2)C(=O)O)c2ccccc2n1C (configuration not stated) stands at 52

For reference, reported growth inhibition for "C/C(=C1\C(=O)Nc2ccccc21)c1cccnc1" stands at -10.4

For reference, reported growth inhibition for "CC1=C(C(=O)Nc2ccccc2)C(c2ccccc2)C(C(=O)Nc2ccccc2)=C(C)N1" stands at 0.55

For reference, reported growth inhibition for "COc1ccc(CCl)c(C)c1OC" stands at 16.1

For reference, reported growth inhibition for "CN1C(=O)CNS1(=O)=O" stands at 4.6

For reference, reported growth inhibition for CN/N=C(\C(=O)Nc1ccc([N+](=O)[O-])cc1[N+](=O)[O-])C1NC(=O)NC1=O (configuration not stated) stands at 15.9

For reference, reported growth inhibition for "CCOCCC(=O)O" stands at 18.1

For reference, reported growth inhibition for NCC(O)c1cc(I)c(Oc2ccc(O)cc2)c(I)c1 (configuration not stated) stands at -1.35

For reference, reported growth inhibition for "CCCCOC(=O)c1c2nc3c(C(=O)OCCCC)ccc(C)c3oc-2c(C)c(=O)c1NC(C)=O" stands at -5.3

For reference, reported growth inhibition for "COc1ccc(Cc2c[nH]c3cc(OC)c(OC)cc23)cc1OC" stands at 10.1

For reference, reported growth inhibition for Clc1cc(OC2C3CC4CC(C3)CC2C4)nc(Cl)n1 (configuration not stated) stands at 16.3

For reference, reported growth inhibition for "CN(C)c1ncnc2c1cnn2-c1ccccc1" stands at -0.25

====

Experiment: NCI Yeast Anticancer Drug Screen. Data for the rad50 strain (AID 155);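 also: 0% = growth of vehicle-only cultures of the same strain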
Conditions: S. cerevisiae rad50 strain growth inhibition; at 50.0 µM; stronger effect = higher value
Compounds without any hit were thinned out: in the full panel of roughly 79,000, 15% have a hit.
measurementLabel: growth inhibition (%)
Write down the numeric answer in % and omit the unit.

Worked examples, 3 compounds total:
CCCCCCCCCCCC(=O)N/N=C/c1ccccc1OC = -0.65
COC(=O)c1c2c(cc3c1CC1(Cc4cc5c(c(C=O)c4C1)CCC5)C3)CCC2 (stereo not given) = -50.6
OC(CC(c1ccccc1)c1cccc2ccccc12)(c1ccccc1)c1ccccc1 (stereo not given) = -12.8

# context switch: different compound, same growth inhibition
For reference, reported growth inhibition for "CCOC(=O)c1c(C(=O)Nc2ccccc2)c(-c2ccccc2)n(NC(=O)c2cccc(Cl)c2)c1C" stands at 18.1

====

Assay: NCI Yeast Anticancer Drug Screen. Data for the sgs1 mgt1 strain (AID 161);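 also: 0% = growth of cultures given vehicle only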
Settings: S. cerevisiae sgs1 mgt1 strain, at 50.0 µM, stronger effect = higher value
This is part of a sample that, as a whole, favours compounds with a hit. Of some 79,000 tested, about 15% had one in any assay.
Listed next: entries and their corresponding growth inhibition.
Write down the numeric answer in % and omit the unit.

For reference, reported growth inhibition for "CC(C)(C)OC(=O)N1CCc2c(n(C/C=C/c3ccccc3)[nH]c2=O)C1" stands at -4.85

For reference, reported growth inhibition for "OCCCCCCO" stands at 16.1

For reference, reported growth inhibition for "O=c1/c(=C/c2ccco2)sc2nc3ccccc3n12" stands at 14.5

For reference, reported growth inhibition for C/C=C/C1OC(OC)(OC)C1(OC)OC (configuration not stated) stands at 18.9

For reference, reported growth inhibition for "CCCC(=O)Nc1cccc(Cl)c1" stands at 8.85

For reference, reported growth inhibition for "COc1cc2ccc1OCc1cccc(n1)COc1ccc(cc1OC)C=NCCNCCN=C2" stands at -14.9

For reference, reported growth inhibition for "C=CCNC(=S)NN(C)C" stands at -16.9

The measured values listed here are drawn from PubChem BioAssay (NCI).
